system: Streptococcus sp.; assay: In vitro antibacterial evaluation: minimum inhibitory concentration (MIC), broth dilution method; format: cell-based; conditions: broth dilution, inoculum 5×10^5 CFU/mL, 18 hours at 35° C.
Property name: MIC Streptococcus pneumoniae (GC 4565) (µg/mL)

Compound: CC(c1ccccc1)C1NC(=O)CNC(=O)C(CO)NC(=O)C(C(O)C2CNC(=N)N2C2OC(CO)C(O)C(O)C2O)NC(=O)C(C(O)C2CNC(=N)N2)NC(=O)C(Cc2ccc(OC3OC(CO)C(OC4OC(CO)C(OCc5ccc(OCc6ccccc6)cc5)C(O)C4O)C(O)C3O)cc2)NC1=O (stereo not shown) [Example 231a]
Limit operator: <
Reported measurement: 0.06

Compound: Cc1ccc(COCC2OC(OC3C(CO)OC(Oc4ccc(CC5NC(=O)C(C(C)c6ccccc6)NC(=O)CNC(=O)C(CO)NC(=O)C(C(O)C6CNC(=N)N6C6OC(CO)C(O)C(O)C6O)NC(=O)C(C(O)C6CNC(=N)N6)NC5=O)cc4)C(O)C3O)C(O)C(O)C2O)cc1 (stereo not shown)
Limit operator: =
Reported measurement: 0.25

Compound: N=C1NCC(C(O)C2NC(=O)C(Cc3ccc(OC4OC(CO)C(OC5OC6COC(CCc7ccccc7)OC6C(O)C5O)C(O)C4O)cc3)NC(=O)C(CC3CCCCC3)NC(=O)CNC(=O)C(CO)NC(=O)C(C(O)C3CNC(=N)N3C3OC(CO)C(O)C(O)C3O)NC2=O)N1 (stereo not shown)
Limit operator: <
Reported measurement: 0.12

Compound: CC(c1ccccc1)C1NC(=O)CNC(=O)C(CO)NC(=O)C(CC2CNC(=N)N2C2OC(CO)C(O)C(O)C2O)NC(=O)C(CC2CNC(=N)N2)NC(=O)C(Cc2ccc(OC3OC(CO)C(OC4OC5COC(c6ccc(OCc7ccccc7)cc6)OC5C(O)C4O)C(O)C3O)cc2)NC1=O (stereo not shown)
Limit operator: =
Reported measurement: 2

Compound: CC(c1ccccc1)C1NC(=O)CNC(=O)C(CO)NC(=O)C(CC2CNC(=N)N2C2OC(CO)C(O)C(O)C2O)NC(=O)C(CC2CNC(=N)N2)NC(=O)C(Cc2ccc(OC3OC(CO)C(OC4OC(COCc5ccc(OCc6ccccc6)cc5)C(O)C(O)C4O)C(O)C3O)cc2)NC1=O (stereo not shown)
Limit operator: =
Reported measurement: 2

Compound: N=C1NCC(C(O)C2NC(=O)C(Cc3ccc(OC4OC(CO)C(OC5OC6COC(Cc7ccccc7)OC6C(O)C5O)C(O)C4O)cc3)NC(=O)C(CC3CCCCC3)NC(=O)CNC(=O)C(CO)NC(=O)C(C(O)C3CNC(=N)N3C3OC(CO)C(O)C(O)C3O)NC2=O)N1 (stereo not shown)
Limit operator: <
Reported measurement: 0.06

Compound: CC(c1ccccc1)C1NC(=O)CNC(=O)C(CO)NC(=O)C(C(O)C2CNC(=N)N2C2OC(CO)C(O)C(O)C2O)NC(=O)C(C(O)C2CNC(=N)N2)NC(=O)C(Cc2ccc(OC3OC(CO)C(OC4OC5COC6(CCCCC6C)OC5C(O)C4O)C(O)C3O)cc2)NC1=O (stereo not shown)
Limit operator: =
Reported measurement: 0.5

====

tested on: Escherichia coli; assay: In vitro antibacterial evaluation: minimum inhibitory concentration (MIC), broth dilution method; type: cell-based; details: Escherichia coli (ATCC 25922); 18 hours at 35° C.
Recorded MIC Escherichia coli (ATCC 25922) by entry
Property name: MIC Escherichia coli (ATCC 25922)

Molecule: COc1ccc2cc(C3OCC4OC(OC5C(CO)OC(Oc6ccc(CC7NC(=O)C(C(C)c8ccccc8)NC(=O)CNC(=O)C(CO)NC(=O)C(CC8CNC(=N)N8C8OC(CO)C(O)C(O)C8O)NC(=O)C(CC8CNC(=N)N8)NC7=O)cc6)C(O)C5O)C(O)C(O)C4O3)ccc2c1 (stereo not drawn)
Tested on: Escherichia coli
Reported measurement: >64 µg/mL
--
Molecule: CC(c1ccccc1)C1NC(=O)CNC(=O)C(CO)NC(=O)C(C(O)C2CNC(=N)N2C2OC(CO)C(O)C(O)C2O)NC(=O)C(C(O)C2CNC(=N)N2)NC(=O)C(Cc2ccc(OC3OC(CO)C(OC4OC5COC(C)(c6ccc(F)cc6)OC5C(O)C4O)C(O)C3O)cc2)NC1=O (stereo not drawn)
Tested on: Escherichia coli
Reported measurement: 32 µg/mL
--
Molecule: CC(c1ccccc1)C1NC(=O)CNC(=O)C(CO)NC(=O)C(C(O)C2CNC(=N)N2C2OC(CO)C(O)C(O)C2O)NC(=O)C(C(O)C2CNC(=N)N2)NC(=O)C(Cc2ccc(OC3OC(CO)C(OC4OC5COC6(OC5C(O)C4O)C(C)CCCC6C)C(O)C3O)cc2)NC1=O (stereo not drawn)
Tested on: Escherichia coli
Reported measurement: 32 µg/mL
--
Molecule: CC(c1ccccc1)C1NC(=O)CNC(=O)C(CO)NC(=O)C(C(O)C2CNC(=N)N2C2OC(CO)C(O)C(O)C2O)NC(=O)C(C(O)C2CNC(=N)N2)NC(=O)C(Cc2ccc(OC3OC(CO)C(OC4OC5COC6(CC7CCC6(C)C7(C)C)OC5C(O)C4O)C(O)C3O)cc2)NC1=O (stereo not drawn)
Tested on: Escherichia coli
Reported measurement: 32 µg/mL
--
Molecule: COc1ccc(COCC2OC(OC3C(CO)OC(Oc4ccc(CC5NC(=O)C(C(C)c6ccccc6)NC(=O)CNC(=O)C(CO)NC(=O)C(C(O)C6CNC(=N)N6C6OC(CO)C(O)C(O)C6O)NC(=O)C(C(O)C6CNC(=N)N6)NC5=O)cc4)C(O)C3O)C(O)C(O)C2O)cc1OCc1ccccc1 (stereo not drawn)
Tested on: Escherichia coli
Reported measurement: >64 µg/mL
--
Molecule: CC(C1CCCCC1)C1NC(=O)CNC(=O)C(CO)NC(=O)C(C(O)C2CNC(=N)N2C2OC(CO)C(O)C(O)C2O)NC(=O)C(C(O)C2CNC(=N)N2)NC(=O)C(Cc2ccc(OC3OC(CO)C(OC4OC5COC6(OC5C(O)C4O)C4CC5CC(C4)CC6C5)C(O)C3O)cc2)NC1=O (stereo not drawn)
Tested on: Escherichia coli
Reported measurement: 64 µg/mL

====

Recorded MIC Coagulase Negative Staphylococcus (GC 4547) by entry
test system: Staphylococcus sp.; test: In vitro antibacterial evaluation: minimum inhibitory concentration (MIC), broth dilution method; type: cell-based; settings: strain GC 4547; broth dilution, 18 hours at 35° C.
Property name: MIC Coagulase Negative Staphylococcus (GC 4547) (µg/mL)

Molecule: CC(c1ccccc1)C1NC(=O)CNC(=O)C(CO)NC(=O)C(C(O)C2CN(Cc3ccc(-c4ccccc4)cc3)C(=N)N2C2OC(CO)C(O)C(O)C2O)NC(=O)C(C(O)C2CNC(=NCc3ccc(-c4ccccc4)cc3)N2Cc2ccc(-c3ccccc3)cc2)NC(=O)C(Cc2ccc(OC3OC(CO)C(OC4OC(CO)C(O)C(O)C4O)C(O)C3O)cc2)NC1=O (stereo not shown)
Reported measurement: 4
//
Molecule: CC(c1ccccc1)C1NC(=O)CNC(=O)C(CO)NC(=O)C(C(O)C2CNC(=N)N2C2OC(CO)C(O)C(O)C2O)NC(=O)C(C(O)C2CNC(=N)N2)NC(=O)C(Cc2ccc(OC3OC(CO)C(OC4OC5COC(Cc6ccc(F)cc6)OC5C(O)C4O)C(O)C3O)cc2)NC1=O (stereo not shown)
Reported measurement: 1
//
Molecule: CC(c1ccccc1)C1NC(=O)CNC(=O)C(CO)NC(=O)C(C(O)C2CNC(=N)N2C2OC(CO)C(O)C(O)C2O)NC(=O)C(C(O)C2CNC(=N)N2)NC(=O)C(Cc2ccc(OC3OC(COC(=O)OCc4ccccc4)C(OC4OC(CO)C(O)C(O)C4O)C(O)C3O)cc2)NC1=O (stereo not shown)
Reported measurement: 2
//
Molecule: N=C1NCC(C(O)C2NC(=O)C(Cc3ccc(OC4OC(CO)C(OC5OC6COC7(OC6C6OC8(OC56)C5CC6CC(C5)CC8C6)C5CC6CC(C5)CC7C6)C(O)C4O)cc3)NC(=O)C(CC3CCCCC3)NC(=O)CNC(=O)C(CO)NC(=O)C(C(O)C3CNC(=N)N3C3OC(CO)C(O)C(O)C3O)NC2=O)N1 (stereo not shown) [Example 106b]
Reported measurement: 8
//
Molecule: CC(c1ccccc1)C1NC(=O)CNC(=O)C(CO)NC(=O)C(C(O)C2CNC(=N)N2C2OC(CO)C(O)C(O)C2O)NC(=O)C(C(O)C2CNC(=N)N2)NC(=O)C(Cc2ccc(OC3OC(COC(=O)C(c4ccccc4)c4ccccc4)C(OC4OC(CO)C(O)C(O)C4O)C(O)C3O)cc2)NC1=O (stereo not shown) [Example 96b]
Reported measurement: 1
//
Molecule: CC(c1ccccc1)C1NC(=O)CNC(=O)C(CO)NC(=O)C(C(O)C2CNC(=N)N2C2OC(CO)C(O)C(O)C2O)NC(=O)C(C(O)C2CNC(=N)N2)NC(=O)C(Cc2ccc(OC3OC(CO)C(OC4OC5COC(C6CC=CCC6)OC5C(O)C4O)C(O)C3O)cc2)NC1=O (stereo not shown)
Reported measurement: 1
//
Molecule: COc1cc(C2OCC3OC(OC4C(CO)OC(Oc5ccc(CC6NC(=O)C(C(C)c7ccccc7)NC(=O)CNC(=O)C(CO)NC(=O)C(C(O)C7CNC(=N)N7C7OC(CO)C(O)C(O)C7O)NC(=O)C(C(O)C7CNC(=N)N7)NC6=O)cc5)C(O)C4O)C(O)C(O)C3O2)ccc1[N+](=O)[O-] (stereo not shown)
Reported measurement: 1

Measured values drawn from patent US8247211B2 for this set.
